From: ChEMBL document CHEMBL5252645

Test method notes: Inhibition of Shh-induced hedgehog signalling pathway in mouse NIH/3T3 cells expressing Gli-Luc reporter gene assessed as reduction in Gli1 transcription activity incubated for 24 hrs in presence of mouse shh stimulation by dual luciferase Assay
Assay type: cell-based
Condition details: NIH3T3, 24 h
Measured metric: pIC50
Give only the number. pIC50 is defined as minus log10 of concentration in molar units.

# input Name the reported pIC50 value associated with the compound C[C@@H]1CN[C@H]2[C@@H](C)[C@@]3(CC[C@@H]4C(=C3CO)C[C@H]3[C@H]4CC=C4C[C@@H](O)CC[C@@]43C)O[C@@H]2C1
# output 5.68

# input Name the reported pIC50 value associated with the compound CC1=C2C[C@H]3[C@@H](CC=C4C[C@@H](O)CC[C@@]43C)[C@@H]2CC[C@]12O[C@@H]1[C@H](O)[C@H](C)CN[C@H]1[C@H]2C
# output 6.82

# input Name the reported pIC50 value associated with the compound CC1=C2C[C@H]3[C@@H](CC=C4C[C@@H](O)CC[C@@]43C)[C@@H]2CC[C@]12O[C@@H]1C[C@H](C)CN[C@H]1[C@H]2C
# output 6.57
